System: ZAP70
protocol.conditions: concentration: 1 μM, replicates: in singlicate; n = 1;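 note: KINOMEscan kinase panel screen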
property.name: %Inh (%)
Use % as the unit, but write only the number.

## Input Item COc1cc(Nc2nccc(N3CCC(NC(=O)c4cc5ccccc5s4)C3)n2)cc(OC)c1OC (stereo not shown) has what recorded %Inh?
## Output 0

## Input Any idea what its %Inh is? The compound is O=c1[nH]cc(-c2ccc(N3CCOCC3)cc2)c2sc(-c3cn[nH]c3)cc12
## Output 0

## Input Please report the recorded %Inh for CCS(=O)(=O)c1ccc(OC)c(Nc2nccc(-c3c(-c4cccc(NC(=O)c5c(F)cccc5F)c4)nn4ncccc34)n2)c1 .
## Output 46

## Input Consider the compound shown here: CCc1ccc(-c2ccc3c(c2)-c2c(cnn2C)S(=O)(=O)N3C)cc1 What is its recorded %Inh?
## Output 0

---

System: CDK4
protocol.conditions: concentration: 1 μM, replicates: in singlicate; n = 1
property.name: %Inh
Report the figure along with its unit, number first.

## Input Give the measured %Inh of CN(C)S(=O)(=O)c1cc(-c2ccc3nccc(-c4cccc(S(N)(=O)=O)c4)c3c2)cnc1N .
## Output 0%

## Input Name the recorded %Inh for Cl.Cl.NCC(NCc1ccc(-c2ccnc3[nH]ccc23)s1)c1ccccc1 (stereo not shown) .
## Output 50%

## Input Find the recorded %Inh belonging to COC(=O)Nc1nc2cc(Oc3ccc(NC(=O)Nc4cc(C(F)(F)F)ccc4F)cn3)ccc2[nH]1.Cl.Cl and report it.
## Output 50%

## Input // %Inh lookup, key: Cl.Cl.NCC(NC(=O)c1cc(-c2ccccc2)c(-c2ccnc3[nH]ccc23)s1)c1ccccc1 (stereo not shown)
## Output 27%

---

Tested on: ACVR2B
protocol.conditions: concentration: 1 μM, replicates: in singlicate; n = 1
Hi there, I'd appreciate the recorded %Inh for every entry that follows.
Number only, in %; omit the unit.

## Input Can you look up the measured %Inh of O=C(Nc1cccc(-c2nn3ncccc3c2-c2ccnc(Nc3ccccc3)n2)c1)c1c(F)cccc1F for me?
## Output 25

## Input Fill in the blank: the reported %Inh of O=C(Nc1cccc(-c2nn3ccccc3c2-c2ccnc(Nc3cccc(F)c3)n2)c1)c1c(F)ccc(F)c1Cl is ____.
## Output 13

## Input Which %Inh is reported for this molecule? Cl.Cl.NCC(NCc1ccc(-c2ccnc3[nH]ccc23)s1)c1ccccc1 (centres unmarked)
## Output 0

## Input Recorded %Inh for COC(=O)Nc1nc2cc(Oc3ccc(NC(=O)Nc4cc(C(F)(F)F)ccc4F)cn3)ccc2[nH]1.Cl.Cl , please?
## Output 0

## Input Entry CC(=O)N1CCN(c2ccc(Nc3nccc(-c4sc(C(C)C)nc4-c4cccc(NS(=O)(=O)c5cccc(Cl)c5)c4)n3)cn2)CC1 : reported %Inh = ?
## Output 72

## Input Look at this molecule and give its reported %Inh. O=C(Nc1n[nH]c2nc(-c3ccc(O)cc3)ccc12)C1CC1
## Output 50

## Input Endpoint output: %Inh of Cc1occc1-c1ncc(OC[C@@H](N)Cc2c[nH]c3ccccc23)cc1-c1ccc2[nH]nc(C)c2c1.O=C(O)C(F)(F)F . Value?
## Output 0

## Input Need %Inh, item O=C(Nc1n[nH]c2cc(-c3ccoc3)ccc12)C1CC1
## Output 46

---

For each of the compounds below, state its %Inh.
System: CDK9
protocol.conditions: concentration: 1 μM, replicates: in singlicate; n = 1
Numbers only; they are read as %.

## Input Given the entry Cc1ccc(S(=O)(=O)Nc2ccc(Nc3nccc(Nc4cccc5[nH]ncc45)n3)cc2)cc1 [GSK581271] , what %Inh was observed with CDK9?
## Output 0

## Input Lookup: %Inh / CDK9 / O=C(Nc1cccc(-c2nn3ncccc3c2-c2ccnc(Nc3ccccc3)n2)c1)c1c(F)cccc1F [GSK198271]
## Output 4

## Input Request body: readout %Inh, system CDK9, query COc1ccc(Nc2nccc(NCCNC(=O)c3cc4ccccc4s3)n2)cc1 [GSK1379896] . Return the value.
## Output 0

## Input Which measured %Inh belongs to CC(C)c1nc(-c2cccc(NS(=O)(=O)c3c(F)cccc3F)c2F)c(-c2ccnc(Nc3ccc(N4CCOCC4)nc3)n2)s1 [GSK2008607] , tested on CDK9?
## Output 93

---

Test system: SgK110
protocol.conditions: concentration: 1 μM, replicates: in singlicate; n = 1
I'd appreciate it if you could supply %Inh values for the items below.
Provide only the numeric value, understood in %.

## Input # query: %Inh | item COCCOCCOc1cc2ncc3c4ccc(C#N)cc4[nH]c3c2cc1OC | system: SgK110
## Output 0

## Input What measured %Inh is associated with CC(=O)Nc1nc2cnc(Nc3cc(NC(=O)c4cccc(C5(C#N)CC5)c4Cl)ccc3C)nc2s1 on SgK110?
## Output 19

## Input GET /values?readout=%Inh&system=SgK110&item= O=C(Nc1n[nH]c2cc(-c3ccoc3)ccc12)C1CC1 [SB-738481]
## Output 0

## Input Lab note: need %Inh for O=C(Nc1cccc(-c2nn3ccccc3c2-c2ccnc(Nc3cccc(C(F)(F)F)c3)n2)c1)c1c(F)cccc1F [GSK292658] on SgK110, anyone have it?
## Output 68

## Input Give the reported %Inh for COc1cc(Nc2ncc3c(C)nc(-c4cc5ccccc5[nH]4)n3n2)cc(OC)c1OC [GW869516] (system: SgK110).
## Output 0

## Input What %Inh appears in the records for this compound with SgK110? Cl.Cl.NCC(NC(=O)c1cc(-c2ccccc2)c(-c2ccnc3[nH]ccc23)s1)c1ccccc1 (stereo not drawn) [GSK1321561]
## Output 0

## Input Hello, I am looking for reported %Inh with SgK110 for FC(F)(F)c1ccc(/C=C/c2cncnc2Nc2ccc3[nH]c(Cc4ccccc4)nc3c2)cc1 [GW709199] . Could you help?
## Output 9

## Input Record lookup: for SgK110, what %Inh belongs to Cc1ccc(C(=O)N2CC[C@@H](O)C2)cc1-n1c(C)cc(OCc2ccc(F)cc2F)c(Br)c1=O ?
## Output 0

## Input Report %Inh for COc1cc(Nc2nccc(-c3c(-c4cccc(NC(=O)c5c(F)cccc5F)c4)nn4ncccc34)n2)cc(OC)c1OC [GSK327238] tested on SgK110.
## Output 69

## Input // fetch SgK110 %Inh for CC(=O)N1CCN(c2ccc(Nc3nccc(-c4sc(C(C)C)nc4-c4cccc(NS(=O)(=O)c5cccc(Cl)c5)c4)n3)cn2)CC1 [GSK1660437]
## Output 0

## Input Recorded %Inh for COC(=O)Nc1nc2cc(Oc3ccc(NC(=O)Nc4cc(C(F)(F)F)ccc4F)cn3)ccc2[nH]1.Cl.Cl [GW681170] with SgK110, please?
## Output 0

## Input Checklist item: %Inh tested on SgK110, entry O=C(Nc1cccc(Oc2ccc3nc(NC(=O)C4CC4)cn3n2)c1)c1ccccc1C(F)(F)F , value?
## Output 0

## Input Write down the reported %Inh of CC(C)c1nc(-c2cccc(NS(=O)(=O)c3c(F)cccc3F)c2F)c(-c2ccnc(Nc3ccc(N4CCOCC4)nc3)n2)s1 [GSK2008607] , test system: SgK110.
## Output 0

## Input GET /values?readout=%Inh&system=SgK110&item= Cn1cc(-c2[nH]c3cc(NC(=O)[C@H](N)C4CCCCC4)cc4c3c2C=NNC4=O)cn1
## Output 92.1

## Input Give recorded %Inh with SgK110 for the following compound: Cl.c1ccc(-c2ccc3c(Nc4ccc5[nH]ccc5c4)ccnc3c2)nc1 [GW440138]
## Output 0

---

Tested on: MYO3A
protocol.conditions: concentration: 1 μM, replicates: in singlicate; n = 1
property.name: %Inh (%)
Answer format: numeric, % implied, no suffix.

## Input Entry COc1cc(Nc2nccc(-c3c(-c4cccc(NC(=O)c5c(F)cccc5F)c4)nn4ccccc34)n2)cc(OC)c1OC [GSK323521] : reported %Inh = ?
## Output 26

## Input So what's the measured %Inh for this one? O=C(Nc1n[nH]c2nc(-c3ccc(O)cc3)ccc12)C1CC1 [SB-710363]
## Output 62

## Input Fill in the blank: the reported %Inh of Cc1ccc(F)c(C(=O)Nc2cccc(-c3nn4ccccc4c3-c3ccnc(Nc4cccc(F)c4)n3)c2)c1F [GSK361061] is ____.
## Output 10

## Input // lookup %Inh for COc1ccc(-c2coc3ccc(-c4nnc(SCc5ccc(OC)c(C(F)(F)F)c5)o4)cc23)cc1
## Output 8

---

Tested on: MEK6
Construct: gene MAP2K6
protocol.conditions: concentration: 1 μM, replicates: in singlicate; n = 1
What %Inh was measured for each of the following?
Value expressed in %; do not type the unit.

## Input Please look up its %Inh: NCCCC(NC(=O)c1cc(Br)c(-c2ccnc3[nH]ccc23)s1)c1ccccc1.O=C(O)C(F)(F)F.O=C(O)C(F)(F)F (stereo not drawn)
## Output 0

## Input What measured %Inh goes with COc1ccc(Nc2nccc(NCCNC(=O)c3cc4ccccc4s3)n2)cc1 ?
## Output 0

## Input // returns reported %Inh for input COc1cc(Nc2nccc(-c3c(-c4cccc(NC(=O)c5c(F)cccc5F)c4)nn4ccccc34)n2)cc(OC)c1OC
## Output 3

## Input What does the record list as %Inh for Cc1ccc(C(=O)N2CC[C@@H](O)C2)cc1-n1c(C)cc(OCc2ccc(F)cc2F)c(Br)c1=O ?
## Output 0

## Input Quick one: %Inh for CN(c1ccc(NC(=O)Nc2cc(C(F)(F)F)ccc2F)cc1)c1ccnc(Nc2ccc(S(N)(=O)=O)cc2)n1 ?
## Output 100

## Input # get_value(readout='%Inh', item= Cl.Cl.NCC(NCc1ccc(-c2ccnc3[nH]ccc23)s1)c1ccccc1 (stereo not drawn) )
## Output 4

## Input Fill in the blank: the reported %Inh of COC(=O)Nc1nc2cc(Oc3ccc(NC(=O)Nc4cc(C(F)(F)F)ccc4F)cn3)ccc2[nH]1.Cl.Cl is ____.
## Output 0

## Input Item under review: Cl.c1ccc(-c2ccc3c(Nc4ccc5[nH]ccc5c4)ccnc3c2)nc1 . Reported %Inh?
## Output 0

## Input Report %Inh for CN1CCN(Cc2cccc(-c3ccc4c(Nc5ccc(Oc6ccccc6)cc5)ccnc4c3)c2)CC1 please.
## Output 0

## Input Which %Inh is listed for Cl.Cl.NCC(NC(=O)c1cc(-c2ccccc2)c(-c2ccnc3[nH]ccc23)s1)c1ccccc1 (stereo not drawn) ?
## Output 6

## Input Suppose we examine the compound COc1cc(Nc2ncc3c(C)nc(-c4cc5ccccc5[nH]4)n3n2)cc(OC)c1OC ; what %Inh value has been reported?
## Output 0

## Input Recorded %Inh of COc1ccc(Nc2nccc(N3CCC(NC(=O)Nc4cccc(OC)c4)C3)n2)cc1 (stereo not drawn) , please.
## Output 0

## Input Requested field: %Inh. Item: COc1cc(Nc2nccc(N3CCC(NC(=O)c4cc5ccccc5s4)C3)n2)cc(OC)c1OC (stereo not drawn)
## Output 0

## Input I am curious: what %Inh value has been reported for c1ccc(-c2cnc3nccnn23)cc1 ?
## Output 0

## Input Can you share its %Inh? I mean this compound: COc1cc(Nc2nccc(N3CCC(NC(=O)Nc4cccc(C(C)=O)c4)C3)n2)cc(OC)c1OC (stereo not drawn)
## Output 0

## Input Which %Inh value belongs to CSc1cccc2c(-c3ccncn3)c(-c3ccc(F)cc3)nn12 ?
## Output 0

## Input Query (compound): COc1cccc(NC(=O)NC2CCN(c3ccnc(Nc4cc(OC)c(OC)c(OC)c4)n3)C2)c1 (stereo not drawn) ; field requested: %Inh
## Output 0

## Input Any idea what %Inh was measured for O=C(Nc1cccc(Oc2ccc3nc(NC(=O)C4CC4)cn3n2)c1)c1ccccc1C(F)(F)F ?
## Output 14

## Input Give the measured %Inh of Cn1cc(-c2[nH]c3cc(NC(=O)[C@H](N)C4CCCCC4)cc4c3c2C=NNC4=O)cn1 .
## Output 3

## Input Report %Inh for Nc1ncnc2c1nc(-c1ccccc1)n2-c1ccccc1 please.
## Output 27

## Input Could you tell me which %Inh is on file for Cn1cc(-c2ccc3c(c2)CCN3C(=O)Cc2cccc(Cl)c2)c2c(N)ncnc21 ?
## Output 0

## Input Item under review: Cc1ccc(S(=O)(=O)Nc2ccc(Nc3nccc(Nc4cccc5[nH]ncc45)n3)cc2)cc1 . Reported %Inh?
## Output 0

## Input Entry COc1ccc(-c2coc3ccc(-c4nnc(SCc5ccc(OC)c(C(F)(F)F)c5)o4)cc23)cc1 : reported %Inh = ?
## Output 0

## Input Can you share its %Inh? I mean this compound: FC(F)(F)c1ccc(/C=C/c2cncnc2Nc2ccc3[nH]c(Cc4ccccc4)nc3c2)cc1
## Output 0
